# Tested on: Enterococcus faecium
# assay_comment: Antimicrobial activity against Enterococcus faecium ATCC 35667 assessed as inhibition of microbial growth incubated for 16 hrs by broth microdilution method
# Type: functional
Catalogue of MIC readings, one per entry.

Some entries whose results are on file:
chemical_string | system_name | MIC
C=C([C@H](C)O)[C@H]1C=C[C@H]2C[C@@H](C)C[C@@H](C)[C@H]2[C@@H]1/C(O)=C1\C(=O)[C@H]([C@@H](C)CC)N(C)C1=O | Enterococcus faecium | 8 µg/mL
CC[C@H](C)[C@@H]1N(C)C(=O)[C@H]2C(=O)[C@H]3[C@@H]4[C@H](C)C[C@H](C)C[C@@H]4C=C[C@@H]3[C@@]3(C)O[C@]21O[C@H]3C | Enterococcus faecium | 64 µg/mL
C[C@@H](O)[C@H]1C(=O)N2C(C(=O)O)=C(S[C@@H]3CN[C@H](C(=O)N(C)C)C3)[C@H](C)[C@H]12 | Enterococcus faecium | > 16 µg/mL

Exercise: Using the record for "CC[C@H](C)[C@H]1C(=O)/C(=C(/O)[C@H]2[C@@H]3[C@H](C)C[C@H](C)C[C@@H]3C=C[C@@H]2[C@]2(C)O[C@H]2C)C(=O)N1C" , state its measured MIC.
Solution: 1 µg/mL
